- measurement.target: T1, hANGPTL4(26-406)-His (Homo sapiens, UniProt Q9BY76)
- T1 construct: purchased R&D Systems
- T1 sequence (Q9BY76 26-406): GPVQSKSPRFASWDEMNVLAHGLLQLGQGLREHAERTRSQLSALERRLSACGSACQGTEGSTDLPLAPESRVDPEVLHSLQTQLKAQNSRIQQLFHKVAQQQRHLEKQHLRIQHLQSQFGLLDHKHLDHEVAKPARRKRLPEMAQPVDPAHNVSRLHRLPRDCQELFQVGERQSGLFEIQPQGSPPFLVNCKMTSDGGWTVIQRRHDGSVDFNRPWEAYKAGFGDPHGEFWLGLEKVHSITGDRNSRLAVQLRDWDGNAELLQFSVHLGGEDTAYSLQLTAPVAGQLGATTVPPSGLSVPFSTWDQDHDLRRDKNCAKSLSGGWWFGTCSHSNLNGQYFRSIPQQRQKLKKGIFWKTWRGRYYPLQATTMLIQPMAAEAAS
- test.summary: BIACORE, full mAb or Fab over amino-coupled hANGPTL4(26-406)-His
- Format: binding
- cond: pH 7.2, 25° C.
Form field: ka (one value per entry).
Number only, in M⁻¹ s⁻¹; omit the unit.

IN: Given the molecule H1H268P Fab: Fab fragment of H1H268P prepared by papain digestion (antibody, V domains shown) VH: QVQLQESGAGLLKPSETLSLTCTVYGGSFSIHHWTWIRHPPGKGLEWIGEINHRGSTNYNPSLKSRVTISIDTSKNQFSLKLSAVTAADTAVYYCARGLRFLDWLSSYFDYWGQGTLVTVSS VL: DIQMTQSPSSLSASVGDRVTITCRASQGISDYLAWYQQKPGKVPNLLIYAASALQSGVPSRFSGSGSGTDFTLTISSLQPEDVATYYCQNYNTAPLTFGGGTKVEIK , what is its reported ka?
OUT: 726000

IN: Follow-up item: H1H284P Fab: Fab fragment of H1H284P prepared by papain digestion (antibody, V domains shown) VH: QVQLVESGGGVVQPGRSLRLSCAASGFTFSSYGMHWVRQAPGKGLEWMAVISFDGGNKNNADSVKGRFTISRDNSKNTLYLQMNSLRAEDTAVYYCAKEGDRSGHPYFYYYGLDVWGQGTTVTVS VL: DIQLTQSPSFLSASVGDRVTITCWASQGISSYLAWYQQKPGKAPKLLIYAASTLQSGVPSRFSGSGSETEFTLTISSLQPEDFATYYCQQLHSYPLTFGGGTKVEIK
OUT: 1.11e+06

Others:
IN: Given H1H284P: anti-hANGPTL4 antibody, hIgG1 isotype, HCVR/LCVR SEQ ID NOs 90/92 (antibody, V domains shown) VH: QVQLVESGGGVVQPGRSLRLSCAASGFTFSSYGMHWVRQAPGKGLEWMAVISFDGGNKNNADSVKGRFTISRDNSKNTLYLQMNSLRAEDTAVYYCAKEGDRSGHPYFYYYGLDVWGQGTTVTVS VL: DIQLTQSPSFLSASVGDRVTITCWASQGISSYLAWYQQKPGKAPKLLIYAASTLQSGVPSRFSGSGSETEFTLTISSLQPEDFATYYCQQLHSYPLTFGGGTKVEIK , state its recorded ka.
OUT: 850000

IN: Another molecule to look at: H1H268P: anti-hANGPTL4 antibody, hIgG1 isotype, HCVR/LCVR SEQ ID NOs 42/44 (antibody, V domains shown) VH: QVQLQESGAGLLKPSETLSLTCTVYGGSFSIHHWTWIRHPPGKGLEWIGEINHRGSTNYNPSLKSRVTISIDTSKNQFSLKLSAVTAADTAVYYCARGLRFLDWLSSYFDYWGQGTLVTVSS VL: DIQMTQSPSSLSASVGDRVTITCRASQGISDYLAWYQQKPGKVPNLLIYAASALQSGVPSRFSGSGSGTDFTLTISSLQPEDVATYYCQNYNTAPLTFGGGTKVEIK
OUT: 489000
